measured-target: UniProt Q9Y5Z0
Sequence (Q9Y5Z0 63-518): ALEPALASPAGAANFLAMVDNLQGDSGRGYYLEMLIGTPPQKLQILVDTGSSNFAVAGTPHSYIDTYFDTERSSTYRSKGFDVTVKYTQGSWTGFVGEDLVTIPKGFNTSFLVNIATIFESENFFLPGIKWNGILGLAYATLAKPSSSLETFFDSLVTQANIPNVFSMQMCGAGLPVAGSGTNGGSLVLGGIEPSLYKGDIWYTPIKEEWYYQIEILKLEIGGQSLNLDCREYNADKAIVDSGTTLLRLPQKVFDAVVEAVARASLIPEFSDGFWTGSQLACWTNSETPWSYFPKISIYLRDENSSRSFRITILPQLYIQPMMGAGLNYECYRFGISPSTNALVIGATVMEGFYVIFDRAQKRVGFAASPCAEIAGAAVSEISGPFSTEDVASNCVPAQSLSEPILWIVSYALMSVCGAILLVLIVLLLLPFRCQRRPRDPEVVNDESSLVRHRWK
experiment-description: BACE-2 Assay (BACE-HTRF assay)
Type: biochemical
pKi: −log10 of the molar value.
assay-endpoint: pKi

[
  {
    "molecule": "CN1C(=N)NC(C)(c2cc(NC(=O)N3CCCCC3)ccc2F)CS1(=O)=O (stereo not shown)",
    "result": "≤ 6.30"
  }
]

====

Tested on: Caco-2 cells
experiment-description: Caco-2 Bi-directional Permeability
Format: in vitro ADME
condition-context: apical to basolateral, 2-hr incubation; iminopyrimidinone analog
Assign labels as follows, please: rule met for Caco-2 AP → BL (nm/s) (Iminopyrimidinone) below 60 nm/s; rule not met for Caco-2 AP → BL (nm/s) (Iminopyrimidinone) equal to or exceeding 60 nm/s.

[
  {
    "molecule": "CN1C(=N)N[C@](C)(c2cc(-c3cccc(C#N)c3)cs2)CC1=O [drawing 741, reference compound]",
    "category-label": "rule not met"
  },
  {
    "molecule": "CN1C(=N)N[C@](C)(c2cc(NC(=O)c3ccc(F)cn3)ccc2F)CC1=O [drawing 739, reference compound]",
    "category-label": "rule met"
  },
  {
    "molecule": "CN1C(=N)N[C@](C)(c2cc(-c3ccc(F)c(C#N)c3)cs2)CC1=O [reference compound]",
    "category-label": "rule not met"
  },
  {
    "molecule": "COc1cnc(C(=O)Nc2cc(F)c(F)c([C@]3(C)CC(=O)N(C)C(=N)N3)c2)cn1 [drawing 735, reference compound]",
    "category-label": "rule not met"
  },
  {
    "molecule": "CN1C(=N)N[C@](C)(c2cc(NC(=O)c3ccc(C(F)(F)F)cn3)ccc2F)CC1=O [drawing 729, reference compound]",
    "category-label": "rule met"
  },
  {
    "molecule": "Cc1cnc(C(=O)Nc2ccc(F)c([C@]3(C)CC(=O)N(C)C(=N)N3)c2)cn1 [reference compound]",
    "category-label": "rule met"
  },
  {
    "molecule": "CC#Cc1cncc(-c2cc(Cl)c([C@]3(C)CC(=O)N(C)C(=N)N3)s2)c1 [drawing 745, reference compound]",
    "category-label": "rule not met"
  }
]
